System: MDA-MB-468 breast
ASSAY_PROCEDURE: NCI tumour cell line growth inhibition, 48 h
EXPERIMENTAL_ENDPOINT: TGI

Solved cases below.
Query :: Quick one: TGI for CC1(/C=C/c2ccc(-c3ccccc3)cc2)CCn2cnc3ncnc(c32)N1O (stereo unspecified) ?
Result :: 0.872 µM

Query :: Can you check `O=C(Nc1cccc(Cl)c1)Nc1cc(C(F)(F)F)ccc1Cl` next?
Result :: 4.73 µM

Query :: Item: `CCCCCCCN(CCCCCCC)C(=N)c1ccc(OC)c2ccccc12`
Result :: 2.81 µM

Query :: Also check `Nc1cc2c3ccccc3ccc2c2ccccc12`
Result :: > 100 µM

List the reported TGI of each molecule below.
1. Fc1ccc(Nc2ccnc(N3CCN(c4ccnc5cc(Cl)ccc45)CC3)n2)cc1
2. COc1ccc(C2CC(=O)Nc3c2c(C)nn3-c2nc3ccccc3[nH]2)cc1OC (stereo unspecified)

Result ::
["19.3 µM", "16.8 µM"]

----------
Test system: NCI-H23 lung
ASSAY_PROCEDURE: NCI tumour cell line growth inhibition, 48 h
Hi there, I'd appreciate the recorded GI50 for every entry that follows.

// solved cases for GI50 follow
Query :: Please look up its GI50: `C=C(C)[C@@H]1CC[C@]2(C(=O)OC)CC[C@]3(C)[C@H](CC[C@@H]4[C@@]5(C)CC[C@H](N)C(C)(C)[C@@H]5CC[C@]43C)[C@@H]12`
Result :: 1780 nM

Query :: Let us now turn to N#CC1=C(c2cccs2)Nc2c(c(-c3ccccc3)nn2-c2ccccc2)C12C(=O)Nc1ccc(Br)cc12 (centres undefined)
Result :: 9980 nM

Query :: What do you have for `O=c1[nH]n(C(=S)N/N=C/c2ccccc2Cl)c(=O)c2ccccc12` ?
Result :: 1970 nM

Here's the next entry for you.
Query :: // query GI50 value for entry `CCCCOc1ccc(NC(=O)c2sc3nc(C)ccc3c2N)cc1`
Result :: 1500 nM

----------
System: SF-539 CNS
ASSAY_PROCEDURE: NCI tumour cell line growth inhibition, 48 h
Would you kindly list TGI for each of these molecules?
One number for each entry, in µM.

# annotated cases, reported TGI shown
Query :: Please look up its TGI: N#CC1=C(c2cccs2)Nc2c(c(-c3ccccc3)nn2-c2ccccc2)C12C(=O)Nc1ccc(Br)cc12 (centres undefined)
Result :: 28.5

Query :: Similarly, `C=C(C)[C@@H]1CC[C@]2(C(=O)OC)CC[C@]3(C)[C@H](CC[C@@H]4[C@@]5(C)CC[C@H](N)C(C)(C)[C@@H]5CC[C@]43C)[C@@H]12` ?
Result :: 3

Query :: Try this molecule next: `CCCCOc1ccc(NC(=O)c2sc3nc(C)ccc3c2N)cc1`
Result :: 3.77

Switching to the query record.
Query :: Quick one: TGI for `O=c1[nH]n(C(=S)N/N=C/c2ccccc2Cl)c(=O)c2ccccc12` ?
Result :: 6.26

----------
Tested on: SK-OV-3 ovarian
ASSAY_PROCEDURE: NCI tumour cell line growth inhibition, 48 h
EXPERIMENTAL_ENDPOINT: GI50

Below, 3 compounds whose answers are already recorded.
Query :: Need GI50, item `O=c1[nH]n(C(=S)N/N=C/c2ccccc2Cl)c(=O)c2ccccc12`
Result :: 4.82 µM

Query :: What would you report for `COc1ccc2[nH]c(O)c(N=NC(=O)COc3ccc(NC(=O)Nc4ccccc4)cc3)c2c1` ?
Result :: 19.6 µM

Query :: # iterate: `C=C(C)[C@@H]1CC[C@]2(C(=O)OC)CC[C@]3(C)[C@H](CC[C@@H]4[C@@]5(C)CC[C@H](N)C(C)(C)[C@@H]5CC[C@]43C)[C@@H]12`
Result :: 2.22 µM

Okay, now this compound:
Query :: Which GI50 is reported for this compound? N#CC1=C(c2cccs2)Nc2c(c(-c3ccccc3)nn2-c2ccccc2)C12C(=O)Nc1ccc(Br)cc12 (centres undefined)
Result :: 14.2 µM
